# tested.target: UniProt:O95864
# Sequence (O95864 whole entry): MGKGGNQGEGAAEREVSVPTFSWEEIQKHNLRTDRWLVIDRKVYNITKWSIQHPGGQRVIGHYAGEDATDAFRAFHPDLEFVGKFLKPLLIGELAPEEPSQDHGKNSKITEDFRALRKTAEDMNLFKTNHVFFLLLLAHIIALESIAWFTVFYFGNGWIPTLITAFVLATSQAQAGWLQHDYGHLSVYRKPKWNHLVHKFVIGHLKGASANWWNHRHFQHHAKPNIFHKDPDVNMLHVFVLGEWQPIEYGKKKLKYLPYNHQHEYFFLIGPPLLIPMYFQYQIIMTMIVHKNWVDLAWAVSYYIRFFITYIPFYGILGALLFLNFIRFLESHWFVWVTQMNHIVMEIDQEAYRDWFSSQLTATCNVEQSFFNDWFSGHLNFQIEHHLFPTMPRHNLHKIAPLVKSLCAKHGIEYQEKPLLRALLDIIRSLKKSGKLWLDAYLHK
# protocol.summary: Inhibition of delta-6 desaturase expressed in HepG2 cells

{"smiles.entry": "O=C(O)Cn1nnc(-c2cc(OCCCOc3cc(F)ccc3Br)no2)n1", "IC50": "> 20 µM"}

---

# protocol.summary: Drug uptake in mouse liver at 10 mg/kg, po after 6 hrs
# Format: ADME, organism-based
# Design: dose 10 mg/kg, route oral
# settings: read-out: Drug uptake
Items are presented alongside their recorded concentration at 6 h.

{"smiles.entry": "O=C(O)Cn1nnc(-c2cc(OCCCOc3cc(F)ccc3Br)no2)n1", "unit.label": "µM", "concentration at 6 h": 0.23}
{"smiles.entry": "O=C(O)Cn1nnc(-c2cnc(OCCCOc3cc(OC(F)(F)F)ccc3Br)s2)n1", "unit.label": "µM", "concentration at 6 h": 13.7}
{"smiles.entry": "O=C(O)Cn1nnc(-c2cc(N3CCC(Oc4cc(F)ccc4Br)CC3)no2)n1", "unit.label": "µM", "concentration at 6 h": 2.7}
{"smiles.entry": "O=C(O)Cn1nnc(-c2cnc(OCCCOc3cc(F)ccc3Br)s2)n1", "unit.label": "µM", "concentration at 6 h": 8.07}
